Assay: NCI Yeast Anticancer Drug Screen. Data for the mlh1 rad18 strain (AID 175)
Settings: S. cerevisiae mlh1 rad18 strain growth inhibition; at 5.0 µM (retest, dose inferred, filed as 0.5)
This is part of a sample that, as a whole, favours compounds with a hit. Of some 79,000 tested, about 15% had one in any assay. Calls of active or inactive are those of the source. Cut-off read from the data, not from the text of the source: active = growth inhibition above about 70%; inactive = the rest.
Outcome codes: true (1) = active, false (0) = inactive

compound: COC12c3c(C)cc(O)c4c(=O)occ(c34)C(=O)C1C13COC(=O)c4c(O)cc(C)c(c41)C(=O)C2C3OC(C)=O (stereo not drawn)
assigned.category: false (0)
//
compound: O=[N+]([O-])O.[In]
assigned.category: false (0)
//
compound: CC(=O)c1ccccc1O.CO.CO.[Cl][Ta][Cl]
assigned.category: false (0)
//
compound: NC(=O)c1cc([N+](=O)[O-])c(Cl)c([N+](=O)[O-])c1Cl
assigned.category: false (0)
//
compound: O=C(c1ccc2ccccc2c1)N1CC1
assigned.category: false (0)
//
compound: CC[C@@]1(O)C[C@H](OC2CC(N(C)C)C(O)C(C)O2)c2c(cc3c(c2O)C(=O)c2c(O)ccc(O)c2C3=O)[C@H]1C(=O)OC (stereo partly drawn)
assigned.category: true (1)
//
compound: C[CH2][Pb]([CH2]C)([CH2]C)[O]C(C)=O
assigned.category: false (0)
//
compound: N#Cc1cc([N+](=O)[O-])c(Cl)c([N+](=O)[O-])c1Cl
assigned.category: false (0)
//
compound: [Cl][Hg][c]1ccco1
assigned.category: true (1)
//
compound: NCCNCCNCCNCCN (tested in a mixture with another compound)
assigned.category: false (0)
//
compound: COc1ccc(/C=C/[N+](=O)[O-])cc1
assigned.category: false (0)
//
compound: N#CS.[Ag]
assigned.category: false (0)
//
compound: Cc1sc(Cc2ccccc2)nc1-c1ccc(N=Cc2ccc(N(CCCl)CCCl)cc2)cc1
assigned.category: false (0)
//
compound: C[CH2][Sn]1([CH2]C)[O]S(=O)(=O)[O]1
assigned.category: false (0)
//
compound: O=[N+]([O-])c1ccc(CS(=O)(=O)C(Cl)(Cl)Cl)o1
assigned.category: false (0)
//
compound: Cc1cc2c(cc1O)C(C)(C)CCC2(C)C
assigned.category: false (0)
//
compound: CC(=O)O[C@H]1CCC2[C@@H]3CCC4Nc5oncc5C[C@]4(C)C3CC[C@@]21C (stereo partly drawn)
assigned.category: false (0)
//
compound: CC(C)NC1CC2CCCCC2CC1c1ccccc1 (stereo not drawn)
assigned.category: false (0)
//
compound: OCC1N2CCC(CC2)C1(O)O (stereo not drawn)
assigned.category: false (0)
//
compound: [O]=[Sb]([OH])([OH])[c]1ccc(NC2OC(CO)C(O)C(O)C2O)cc1 (stereo not drawn)
assigned.category: false (0)
//
compound: Nc1nc(N)c(-c2ccc(Cl)c(Cl)c2)c(COc2ccc(CNC(=O)Nc3cccc(S(=O)(=O)F)c3)cc2Cl)n1
assigned.category: false (0)
//
compound: O=C(CBr)OC1CCCCC1
assigned.category: false (0)
//
compound: CC(=O)[C-](Cl)C(C)=O.CC(=O)[C-](Cl)C(C)=O.CC(=O)[C-](Cl)C(C)=O.[Ru+3]
assigned.category: false (0)
//
compound: COC1OCCC[CH]1[Hg][Cl] (stereo not drawn)
assigned.category: true (1)
//
compound: O=[N+]([O-])c1c[c]([Hg][Cl])c(O)[c]([Hg][Cl])c1
assigned.category: false (0)
//
compound: CC(=O)[O][Sn]([c]1ccccc1)([c]1ccccc1)[c]1ccccc1
assigned.category: true (1)
//
compound: CC12CCC(=O)C=C1CCC1C2CCC2(C)C(O[Si](C)(C)OC3CCC4C5CCC6=CC(=O)CCC6(C)C5CCC34C)CCC12 (stereo not drawn)
assigned.category: false (0)
//
compound: CC(=O)[C-](I)C(C)=O.CC(=O)[C-](I)C(C)=O.CC(=O)[C-](I)C(C)=O.[Ru+3]
assigned.category: false (0)
//
compound: COC1OC(OC)[CH]([Hg][Cl])C1OC (stereo not drawn)
assigned.category: true (1)
//
compound: O=C1C(F)=C(N2CC2)C(=O)C(N2CCOCC2)=C1N1CC1
assigned.category: true (1)
//
compound: CCCC[As](CCCC)SC1CCC2(C)C(=CCC3C4CCC(=O)C4(C)CCC32)C1 (stereo not drawn)
assigned.category: false (0)
//
compound: CC(=O)NNc1ccccc1
assigned.category: false (0)
//
compound: C[CH2][Pb]([CH2]C)([CH2]C)[O]C(=O)COc1ccc(Cl)cc1Cl
assigned.category: false (0)
//
compound: O=C(O)C(CSC(c1ccccc1)c1ccccc1)NC(=O)C(c1ccccc1)c1ccccc1 (stereo not drawn)
assigned.category: false (0)
//
compound: CCCCCCCCCCC(=O)O.[Pb]
assigned.category: false (0)
//
compound: CCCC(C)c1ccccc1OP(=S)(S)Oc1ccccc1C(C)CCC (stereo not drawn)
assigned.category: false (0)
//
compound: O=[N+]([O-])/C=C/c1cccc([N+](=O)[O-])c1
assigned.category: false (0)
//
compound: COC1=C(Cl)C(=O)c2ccccc2C1=O
assigned.category: false (0)
//
compound: Cc1cc(N(CCCl)CCCl)ccc1CN1CCCN(Cc2ccc(N(CCCl)CCCl)cc2C)C1c1ccc(N(CCCl)CCCl)cc1
assigned.category: false (0)
//
compound: O=C(CC(=O)c1ccccc1)c1ccccc1.O=C(CC(=O)c1ccccc1)c1ccccc1.O=C(CC(=O)c1ccccc1)c1ccccc1.[Al]
assigned.category: false (0)
//
compound: NC(=O)c1ccc(C(=O)Nc2ccc([As](=O)(O)O)cc2)cc1
assigned.category: false (0)
//
compound: O=[N+]([O-])C=C([SH2+])[SH2+].O=[N+]([O-])C=C([SH2+])[SH2+].[Ni+2].c1ccc(C[P+](c2ccccc2)(c2ccccc2)c2ccccc2)cc1
assigned.category: false (0)
//
compound: Cc1nnc2n1-c1ccc(Cl)cc1C(c1ccccc1)=[N+]([O-])C2
assigned.category: false (0)
